TARGET_DESC: human MCH receptor (Homo sapiens, UniProt Q99705)
Sequence (Q99705 whole entry): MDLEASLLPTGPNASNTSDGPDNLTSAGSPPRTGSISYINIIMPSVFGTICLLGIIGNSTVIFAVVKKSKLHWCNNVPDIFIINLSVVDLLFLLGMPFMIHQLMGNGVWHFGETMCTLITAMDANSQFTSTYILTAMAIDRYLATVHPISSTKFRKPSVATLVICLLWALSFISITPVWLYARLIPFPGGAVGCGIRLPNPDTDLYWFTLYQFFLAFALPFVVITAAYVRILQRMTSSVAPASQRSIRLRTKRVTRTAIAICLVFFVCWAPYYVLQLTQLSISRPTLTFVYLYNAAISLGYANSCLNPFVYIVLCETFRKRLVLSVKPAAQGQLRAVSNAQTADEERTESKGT
PROTOCOL_NOTES: Aequorin bioluminescence functional assay in 293-AEQ17 cells transfected with human MCH receptor
Type: cell-based
Set-up: expressed in transfected cells; host or cells: 293-AEQ17 (aequorin-expressing HEK-293 reporter line), transient lipofectamine transfection, pcDNA-3 vector; concentration or dose not given beside the values
ASSAY_SETUP: Table 4; position 6 modification
Text: The aequorin bioluminescence assay is a reliable test for measuring the activity of G protein-coupled receptors that couple through the Gα protein subunit family consisting of Gq and Gll and leads to the activation of phospholipase C, mobilization of intracellular calcium and activation of protein kinase C. […]
READOUT_KIND: Activity Activation % (%)
Numbers only, in %.

Solved entries (count: 2):
CSCC[C@@H]1NC(=O)[C@@H](NC(=O)[C@H](CCC(=O)O)NC(C)=O)CSSC[C@@H](C(N)=O)NC(=O)[C@@H]2CCCN2C(=O)[C@H](CCCNC(=N)N)NC(=O)[C@H](Cc2ccc(O)cc2)NC(=O)[C@H](C(C)C)NC(=O)[C@H](CCCNC(=N)N)NC(=O)CNC(=O)[C@H](CC(C)C)NC1=O    113
CSCC[C@@H]1NC(=O)[C@@H](NC(=O)[C@H](CCCNC(=N)N)NC(C)=O)CSSC[C@@H](C(N)=O)NC(=O)[C@@H]2CCCN2C(=O)[C@H](CCCNC(=N)N)NC(=O)[C@H](Cc2ccc(O)cc2)NC(=O)[C@H](C(C)C)NC(=O)[C@H](CCCNC(=N)N)NC(=O)CNC(=O)[C@H](CC(C)C)NC1=O    99

Entry `CSCC[C@@H]1NC(=O)[C@@H](NC(=O)[C@H](CCCNC(=N)N)NC(=O)[C@H](CC(C)C)NC(=O)[C@H](CCSC)NC(=O)[C@H](CC(=O)O)NC(=O)[C@H](Cc2ccccc2)NC(=O)[C@@H](N)CC(=O)O)CSSC[C@@H](C(=O)N[C@@H](Cc2c[nH]c3ccccc23)C(=O)N[C@@H](CCC(N)=O)C(=O)N[C@H](C(=O)O)C(C)C)NC(=O)[C@@H]2CCCN2C(=O)[C@H](CCCNC(=N)N)NC(=O)[C@H](Cc2ccc(O)cc2)NC(=O)[C@H](C(C)C)NC(=O)[C@H](CCCNC(=N)N)NC(=O)CNC(=O)[C@H](CC(C)C)NC1=O` ; assay system human MCH receptor (Homo sapiens, UniProt Q99705); Activity Activation % recorded at 100
